- Tested on: Cultured Neurocyte (cerebral cortexes), Glutamic Acid Toxicity
- Experiment notes: Cultured-Neurocyte Protective Effect against Glutamic Acid Toxicity (LDH leakage)
- Assay type: cell-based, rat (Wistar, fetal)
- Assay context: Rattus norvegicus, Cerebral cortex neuron, 10 mM glutamic acid, 24 hours at 37° C., read-out: ED50 (50% effective dose), neurocyte protective effect against glutamic acid toxicity
pEC50: −log10 of the molar value.
Quick rule: pEC50 of at least 6 means true, below that means false.

Determine whether measured pEC50 meets or exceeds 6 for O=C(Cc1ccc(Cl)c(Cl)c1)N[C@@H]1CC[C@H]2CN(CC3CC3)CC[C@]2(c2cccc(O)c2)C1 (relative stereo) [Compound 21]
false

Textbook exercise: given the entry CC(C)CN(C(=O)CCCCCc1ccccc1)[C@H]1CC[C@H]2CN(CC3CC3)CC[C@]2(c2cccc(O)c2)C1 [Compound 11] , state whether its pEC50 is greater than or equal to 6.
false

Does CN(C(=O)CCCCCc1ccccc1)[C@H]1CC[C@H]2CN(CC3CC3)CC[C@]2(c2cccc(O)c2)C1 [Compound 10] have a reported pEC50 of at least 6?
true

Hello, I need to know if CC(C)CN(C(=O)CCCCCc1ccccc1)[C@H]1CC[C@@]2(O)CN(CC3CC3)CC[C@]2(c2cccc(O)c2)C1 (relative stereo) [Compound 13] has measured pEC50 not below 6. Thanks!
false

Check the entry CN(C(=O)/C=C/c1cccc(C(F)(F)F)c1)[C@@H]1CC[C@@H]2CN(CC3CC3)CC[C@@]2(c2cccc(O)c2)C1 [Compound 9] : does pEC50 equal or exceed 6?
true

# bool: pEC50 of CN(C(=O)/C=C/c1cccc(C(F)(F)F)c1)[C@H]1CC[C@@]2(O)CN(CC3CC3)CC[C@]2(c2cccc(O)c2)C1 (relative stereo) [Compound 12] >= 6
true

Hi team, for O=C(N[C@@H]1CC[C@H]2CN(CC3CC3)CC[C@]2(c2cccc(O)c2)C1)c1ccc2ccccc2c1 (relative stereo) [Compound 23] , is the recorded pEC50 at or above 6?
true
